test.system: ALKR Q317A (Aplysia californica, UniProt A0A977Q7Q2, Q317A)
experiment: IP1 accumulation assay, ALKR mutant Q317A in CHO-K1
Format: cell-based
Where no end group is shown, it is not given here.
observation.type: EC50 (nM)
Field format: number, assumed nM, no unit text.

Query string: Report measured EC50; entry is PAFHSWS-NH2 [ALK1]
Result string: 56.2

###

test.system: ALKR L157Q (Aplysia californica, UniProt A0A977Q7Q2, L157Q)
experiment: IP1 accumulation assay, ALKR mutant L157Q in CHO-K1
Type: cell-based
assay.context: log [EC50] on ALKR L157Q, log scale, mutant without FLAG tag, mean ± SEM, n = 3
Where no end group is shown, it is not given here.
observation.type: pEC50
Interpret pEC50 as the negative base-10 log of the concentration measured in mol/L.

Query string: Report measured pEC50; entry is PAFHSWS-NH2 [ALK1]
Result string: 7.15

###

test.system: ALKR (Aplysia leucokinin-like peptide receptor) (Aplysia californica, UniProt A0A977Q7Q2)
Sequence (A0A977Q7Q2 1-429): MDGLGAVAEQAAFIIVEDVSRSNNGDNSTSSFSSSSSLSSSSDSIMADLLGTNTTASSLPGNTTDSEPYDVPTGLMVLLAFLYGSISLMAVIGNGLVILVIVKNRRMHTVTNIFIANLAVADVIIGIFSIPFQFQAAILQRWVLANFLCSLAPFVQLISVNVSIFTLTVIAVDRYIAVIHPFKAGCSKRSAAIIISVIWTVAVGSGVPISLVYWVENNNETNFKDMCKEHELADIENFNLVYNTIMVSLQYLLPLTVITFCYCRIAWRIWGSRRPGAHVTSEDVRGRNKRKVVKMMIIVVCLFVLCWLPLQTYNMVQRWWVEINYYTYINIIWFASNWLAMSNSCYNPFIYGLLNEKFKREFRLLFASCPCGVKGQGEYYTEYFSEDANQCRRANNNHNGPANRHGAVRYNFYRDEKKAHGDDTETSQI
experiment: IP1 accumulation assay, CHO-K1 cells transfected with ALKR
Assay type: cell-based
assay.context: log scale; CHO-K1 transiently transfected with ALKR, no promiscuous Gαq; IP1 detection kit (Cisbio); mean ± SEM; ALK1 n = 13, ALK2 n = 4, others n = 3; inactive: greater than highest concentration tested; read-out: log [EC50] on ALKR (converted)
Where no end group is shown, it is not given here.
EC50 less than 20 nM is satisfied; EC50 greater than or equal to 20 nM is not satisfied.

PAFASWS-NH2 [ALK1_A4]: not satisfied
PAFQAWS-NH2 [ALK13]: satisfied
PAFHSWS-NH2 [ALK1]: satisfied
AAFHSWS-NH2 [ALK1_A1]: not satisfied

Query string: Please check: EC50 for PAFHAWS-NH2 [ALK2] , strictly under 20 nM or not?
Result string: not satisfied

Query string: Please check: EC50 for PAFHSAS-NH2 [ALK1_A6] , strictly under 20 nM or not?
Result string: not satisfied

Query string: Please check: EC50 for DTPRYVSKQKFHSWG-NH2 [Anopheles LK1, reference compound] , strictly under 20 nM or not?
Result string: not satisfied

Query string: Please check: EC50 for PAFSAWN-NH2 [ALK5] , strictly under 20 nM or not?
Result string: satisfied

Query string: Please check: EC50 for PAAFHAWS-NH2 [ALK11] , strictly under 20 nM or not?
Result string: not satisfied

Query string: Please check: EC50 for PAFSPWS-NH2 [ALK9] , strictly under 20 nM or not?
Result string: satisfied

Query string: Please check: EC50 for PAAHSWS-NH2 [ALK1_A3] , strictly under 20 nM or not?
Result string: not satisfied

###

test.system: ALKR L157Q (Aplysia californica, UniProt A0A977Q7Q2, L157Q)
experiment: IP1 accumulation assay, ALKR mutant L157Q in CHO-K1
Assay type: cell-based
assay.context: EC50 on ALKR L157Q, mutant without FLAG tag, n = 3
Excerpt: IP1 accumulation assay measures concentration of IP1 ([88]), that is hydrolyzed from the second messenger, inositol trisphosphate, generated by Gαq pathway when GPCR expressed in CHO-K1 cells is activated by an appropriate ligand. […]
Where no end group is shown, it is not given here.
observation.type: pEC50
Interpret pEC50 as the negative base-10 log of the concentration measured in mol/L.

Query string: Report measured pEC50; entry is PAFHSWS-NH2 [ALK1]
Result string: 7.11

###

test.system: Anopheles LKR (Anopheles stephensi, UniProt Q694V6)
Sequence (Q694V6 1-573): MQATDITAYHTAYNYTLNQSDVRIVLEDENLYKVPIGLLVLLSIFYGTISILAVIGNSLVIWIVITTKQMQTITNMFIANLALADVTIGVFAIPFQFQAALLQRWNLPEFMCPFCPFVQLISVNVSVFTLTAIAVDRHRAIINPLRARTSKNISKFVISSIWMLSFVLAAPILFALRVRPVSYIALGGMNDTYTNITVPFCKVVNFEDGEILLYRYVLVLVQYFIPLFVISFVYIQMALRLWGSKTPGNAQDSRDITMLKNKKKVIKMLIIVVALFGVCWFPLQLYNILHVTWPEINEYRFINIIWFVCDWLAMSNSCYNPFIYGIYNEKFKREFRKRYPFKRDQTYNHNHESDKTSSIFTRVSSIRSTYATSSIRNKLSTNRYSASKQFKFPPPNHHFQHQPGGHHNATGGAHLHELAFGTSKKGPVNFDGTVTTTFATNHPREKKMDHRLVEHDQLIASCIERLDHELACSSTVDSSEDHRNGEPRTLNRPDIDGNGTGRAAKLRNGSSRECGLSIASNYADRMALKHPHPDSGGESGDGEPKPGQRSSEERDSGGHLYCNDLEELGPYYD
experiment: IP1 accumulation assay, CHO-K1 cells cotransfected with Anopheles LKR and promiscuous Gαq
Assay type: cell-based
assay.context: log scale, mean ± SEM, n = 3
Where no end group is shown, it is not given here.
Consider the following substances and their measured EC50 readings.
Field format: number, assumed nM, no unit text.

Answered cases to consult:
DTPRYVSKQKFHSWG-NH2 [Anopheles LK1, reference compound]: 3.63
PAFHSWS-NH2 [ALK1]: 282
PAFNAWG-NH2 [ALK8]: 40.7

Query substance follows.
Query string: Report measured EC50; entry is PAFSPWS-NH2 [ALK9]
Result string: 724

###

test.system: ALKR Q317N (Aplysia californica, UniProt A0A977Q7Q2, Q317N)
experiment: IP1 accumulation assay, ALKR mutant Q317N in CHO-K1
Format: cell-based
Where no end group is shown, it is not given here.
observation.type: pEC50
Interpret pEC50 as the negative base-10 log of the concentration measured in mol/L.

Query string: Report measured pEC50; entry is PAFHSWS-NH2 [ALK1]
Result string: 7.60

###

test.system: ALKR Q133A (Aplysia californica, UniProt A0A977Q7Q2, Q133A)
experiment: IP1 accumulation assay, ALKR mutant Q133A in CHO-K1
Format: cell-based
Where no end group is shown, it is not given here.
observation.type: pEC50
Interpret pEC50 as the negative base-10 log of the concentration measured in mol/L.

Query string: Report measured pEC50; entry is PAFHSWS-NH2 [ALK1]
Result string: 7.11

###

test.system: ALKR N314A (Aplysia californica, UniProt A0A977Q7Q2, N314A)
experiment: IP1 accumulation assay, ALKR mutant N314A in CHO-K1
Format: cell-based
Description: IP1 accumulation assay measures concentration of IP1 ([88]), that is hydrolyzed from the second messenger, inositol trisphosphate, generated by Gαq pathway when GPCR expressed in CHO-K1 cells is activated by an appropriate ligand. […]
Where no end group is shown, it is not given here.
observation.type: EC50 (nM)
Field format: number, assumed nM, no unit text.

Query string: Report measured EC50; entry is PAFHSWS-NH2 [ALK1]
Result string: 110

###

Consider the following substances and their measured EC50 readings.
test.system: ALKR (Aplysia leucokinin-like peptide receptor) (Aplysia californica, UniProt A0A977Q7Q2)
experiment: IP1 accumulation assay, CHO-K1 cells transfected with ALKR
Format: cell-based
assay.context: log scale; CHO-K1 transiently transfected with ALKR, no promiscuous Gαq; IP1 detection kit (Cisbio); mean ± SEM; ALK1 n = 13, ALK2 n = 4, others n = 3; inactive: greater than highest concentration tested; read-out: log [EC50] on ALKR (converted)
Excerpt: To examine whether the native ALKs could activate the putative ALKR, we expressed the ALKR in Chinese hamster ovary K1 (CHO-K1) cells and examined ALK-mediated changes in the concentration of inositol monophosphate (IP1), a degradation product of the second messenger (inositol trisphosphate) in the Gq signaling pathway upon ligand-induced activation ([88]) (Figs. 4 and S5). […] All endogenous ALK peptides could activate ALKR in a dose-dependent manner (Fig. 4, A–C). […]
Where no end group is shown, it is not given here.

Answered cases to consult:
PAFNAWG-NH2 [ALK8]: 10.2 nM
PRFHAWS-NH2 [ALK7]: 91.2 nM
PAFHAWG-NH2 [ALK10]: 21.4 nM
PAFHSWS-OH [ALK1-OH]: > 10000 nM

Query string: Report measured EC50; entry is PAFHSWA-NH2 [ALK1_A7]
Result string: 28.2 nM
